The values you see were collected from the supplement of paper PMC6555819.

- System: PPARg:RXRa 30nM:10nM, anti-RXR (NR concentration 30 nM, RXRa partner concentration 10 nM)
- Assay protocol: PBM binding z-score (relative to random genomic background probes); higher = stronger binding; sequences stand for … in GC…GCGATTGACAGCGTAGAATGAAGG
Assign condition met to entries whose PBM binding z-score meets or exceeds 2; assign condition not met to the rest.

>  <Biosequence>
CCGCCTGGGGCAGAAAGGTTACCATACCATCCGG

>  <Category label>
condition not met

$$$$

Q: Entry "CCAAACAGGTGAGAAGGTAACTCAGCCTCGATTA" : is its PBM binding z-score no less than 2?
A: condition not met

Q: Repeat with "TGAATGAGGTTAAGGATCAGGGAACGTGGCGTCG"
A: condition met

Q: Repeat with "TCGAGTAGCTTAGGGGCATTCAGAATGGCGTCGA"
A: condition not met

Q: Repeat with "CGTCCAAGGTCATAGGAGGTCAGTGGAGACAGAT"
A: condition met
